Assay: qHTS for induction of synthetic lethality in tumor cells producing 2HG: qHTS for the HT-1080-IDH1KD cell line; note: potency is the fitted concentration of half-maximal effect
Conditions: HT-1080 IDH1 knockdown viability, ATP luminescence, 48 h; series mostly up to 46.1 µM
About 7,500 (2.1%) of roughly 360,000 compounds were called active. Another 8% or so got no clear call; they are omitted. The sample as a whole holds a higher share of actives than the screen did.
MEASUREMENT KIND: Potency

>>> recorded_value("O=C(NC(Cc1c[nH]c2ccccc12)C(=O)N/N=C/c1ccc(Br)cc1)c1cccs1 (stereo not given)")
"32.6 µM (active)"
>>> recorded_value("Cn1ncc([N+](=O)[O-])c1C(=O)Nc1cc(Cl)ccc1Cl")
"inactive"
>>> recorded_value("C[C@@H]1CN([C@H](C)CO)C(=O)CCCn2nncc2CO[C@@H]1CN(C)S(=O)(=O)c1cccc(C#N)c1")
"inactive"
>>> recorded_value("O=C(CNC(=O)c1cccs1)N/N=C/c1cccc(Br)c1")
"inactive"
>>> recorded_value("Cc1noc(C)c1C(=O)N1CCC1(C)C(=O)NS(=O)(=O)c1ccc(C#N)cc1 (stereo not given)")
"inactive"
